- Target desc: PI3K-gamma (Homo sapiens, UniProt P48736)
- Sequence (P48736 whole entry, species assumed): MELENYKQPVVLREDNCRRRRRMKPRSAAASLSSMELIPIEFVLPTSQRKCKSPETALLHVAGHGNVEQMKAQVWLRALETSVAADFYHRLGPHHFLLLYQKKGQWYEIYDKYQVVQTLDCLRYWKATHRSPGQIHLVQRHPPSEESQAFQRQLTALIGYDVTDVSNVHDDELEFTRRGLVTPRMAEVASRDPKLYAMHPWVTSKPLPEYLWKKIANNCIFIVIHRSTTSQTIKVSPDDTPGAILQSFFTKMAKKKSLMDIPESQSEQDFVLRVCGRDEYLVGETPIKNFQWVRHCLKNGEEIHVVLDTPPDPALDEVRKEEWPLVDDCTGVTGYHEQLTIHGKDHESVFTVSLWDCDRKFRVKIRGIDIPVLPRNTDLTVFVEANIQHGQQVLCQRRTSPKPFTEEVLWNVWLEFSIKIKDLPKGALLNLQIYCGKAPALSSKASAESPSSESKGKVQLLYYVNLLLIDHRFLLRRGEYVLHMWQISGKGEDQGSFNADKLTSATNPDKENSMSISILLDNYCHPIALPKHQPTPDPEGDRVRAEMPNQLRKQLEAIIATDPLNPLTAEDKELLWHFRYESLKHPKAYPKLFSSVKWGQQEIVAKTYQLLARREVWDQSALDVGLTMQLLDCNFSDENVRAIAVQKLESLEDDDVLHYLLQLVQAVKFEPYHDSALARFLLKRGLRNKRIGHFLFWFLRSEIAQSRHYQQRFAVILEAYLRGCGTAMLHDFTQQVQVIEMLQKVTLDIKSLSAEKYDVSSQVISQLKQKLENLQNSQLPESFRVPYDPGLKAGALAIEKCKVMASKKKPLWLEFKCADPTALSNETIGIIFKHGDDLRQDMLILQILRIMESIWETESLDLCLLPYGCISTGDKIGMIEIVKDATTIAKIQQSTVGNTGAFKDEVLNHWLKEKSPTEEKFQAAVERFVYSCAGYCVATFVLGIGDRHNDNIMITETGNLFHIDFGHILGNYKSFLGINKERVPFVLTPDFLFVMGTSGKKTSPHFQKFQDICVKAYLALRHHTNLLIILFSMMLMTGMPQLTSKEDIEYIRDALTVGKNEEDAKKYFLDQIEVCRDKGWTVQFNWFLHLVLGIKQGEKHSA
- Experimental protocol: PI3K-gamma fluorescence polarization assay
- Type: biochemical
- Test conditions: PI3Kγ Avg. IC50
Assay readout: log10(IC50) (log10 of the value in µM)
Friendly reminder: values = log10 of IC50, unit µM.

Known log10(IC50) results, listed for orientation:
CNC(=O)Nc1ccc2c(c1)C(=O)/C(=C/c1c(-c3c(C)noc3C)n(CCN3CCN(C)CC3)c3ccc(OC)cc13)O2 :: -0.53
CC(C)Oc1ccc(-c2cccc3c2c(/C=C2\Oc4cc(O)cc(O)c4C2=O)cn3C)cc1 :: 0.60
CCc1cccc2c(C=C3Oc4cc(O)cc(O)c4C3=O)cn(CCCC#N)c12 :: 0.78
COc1ccc2c(c1)c(/C=C1\Oc3cc(O)cc(O)c3C1=O)cn2CCCN(C)C :: -0.22
COc1ccc2[nH]cc(/C=C3\Oc4cc(-c5nn[nH]n5)ccc4C3=O)c2c1 :: 0.39

Continue with the compound presented below.
Short answer on PI3K-gamma (Homo sapiens, UniProt P48736) for CNC(=O)Nc1ccc2c(c1)C(=O)/C(=C/c1c(-c3c(C)nn(C)c3C)n(CCCC#N)c3ccc(OC)cc13)O2 , log10(IC50): -1.78

###

- Target desc: human TOR (Homo sapiens, UniProt P42345)
- Construct: FLAG
- Experimental protocol: mTOR enzyme assay (DELFIA, His6-S6K substrate)
- Type: biochemical
- Test conditions: read-out: mTOR Kinase Avg. IC50
Assay readout: pIC50
Please report pIC50 as the negative decimal logarithm of the molar concentration, giving only the number.

Cn1cc(/C=C2\Oc3cc(O)cc(O)c3C2=O)c2c(-c3ccc(C#N)nc3)cccc21 :: 7.70
COc1ccc2[nH]c(-c3c(C)nn(C)c3C)c(/C=C3\Oc4ccc(NC(=O)Nc5ccc(C(=O)N6CCC(N(C)C)C6)cc5)cc4C3=O)c2c1 (stereo not drawn) :: 9.00
O=C1C(=Cc2c(-c3ccccc3)n(CCN3CCNCC3)c3ccccc23)Oc2cc(O)cc(O)c21 :: 6.09
Cn1c(-c2cccc(O)c2)c(C=C2Oc3cc(O)cc(O)c3C2=O)c2ccccc21 :: 6.41
CNC(=O)Nc1ccc2c(c1)C(=O)/C(=C/c1c(-c3c(C)noc3C)n(CCN3CCN(C)CC3)c3ccc(OC)cc13)O2 :: 7.22

Please fill in: pIC50 reported for COc1ccc2[nH]c(-c3c(C)nn(C)c3C)c(/C=C3\Oc4ccc(NC(=O)Nc5ccc(C(=O)N6CCC(N(C)C)CC6)cc5)cc4C3=O)c2c1 = 9.00

Please fill in: pIC50 reported for COc1ccc2[nH]c(-c3c(C)noc3C)c(/C=C3\Oc4cc(O)cc(O)c4C3=O)c2c1 = 8.90

Please fill in: pIC50 reported for Cn1cc(/C=C2\Oc3cc(O)cc(O)c3C2=O)c2c(-c3cccc(C#N)c3)cccc21 = 6.30

Please fill in: pIC50 reported for O=C1C(=Cc2c(-c3ccc(O)cc3)[nH]c3ccccc23)Oc2cc(O)cc(O)c21 = 7.19

Please fill in: pIC50 reported for CN(C)c1ccc(-c2c(C=C3Oc4cc(O)cc(O)c4C3=O)c3ccccc3n2C)cc1 = 5.35

Please fill in: pIC50 reported for Cc1[nH]c2ccc(F)cc2c1C=C1Oc2cc(O)cc(O)c2C1=O = 5.78

Please fill in: pIC50 reported for COc1ccc2c(c1)c(/C=C1\Oc3cc(O)cc(O)c3C1=O)c(C1CCCC1)n2CCN1CCN(C)CC1 = 9.19
